# experiment: in vivo
# Parameters: species or system CF-1 normal mice
# assay.context: CF-1, mouse, iv, total radioactivity, Heart uptake
quantity.kind: tissue uptake at 1 h (%ID/g)
Answers are plain numbers, in %ID/g.

Provide tissue uptake at 1 h values for the following items, in order.
1. CC(C)C[C@H](NC(=O)C[C@H](O)[C@H](CC(C)C)NC(=O)[C@H](Cc1c[nH]cn1)NC(=O)CNC(=O)[C@@H](NC(=O)[C@H](C)NC(=O)[C@H](Cc1c[nH]c2ccccc12)NC(=O)[C@H](CCC(N)=O)NC(=O)[C@@H](Cc1ccccc1)NC(=O)CCCCCNC(=O)[C@H](CCCCNC(=O)CN1CCN(CC(=O)O)CCN(CC(=O)O)CCN(CC(=O)O)CC1)NC(=O)CCCCCNC(=O)CC[C@H](NC(=O)N[C@@H](CCC(=O)O)C(=O)O)C(=O)O)C(C)C)C(N)=O [DUPA-6-Ahx-Lys(^111In-DOTA)-6-Ahx-RM2, metal not drawn]
2. CC(C)C[C@H](NC(=O)C[C@H](O)[C@H](CC(C)C)NC(=O)[C@H](Cc1c[nH]cn1)NC(=O)CNC(=O)[C@@H](NC(=O)[C@H](C)NC(=O)[C@H](Cc1c[nH]c2ccccc12)NC(=O)[C@H](CCC(N)=O)NC(=O)[C@@H](Cc1ccccc1)NC(=O)CCCCCCCNC(=O)[C@H](CCCCNC(=O)CN1CCN(CC(=O)O)CCN(CC(=O)O)CCN(CC(=O)O)CC1)NC(=O)CCCCCNC(=O)CC[C@H](NC(=O)N[C@@H](CCC(=O)O)C(=O)O)C(=O)O)C(C)C)C(N)=O [DUPA-6-Ahx-Lys(^111In-DOTA)-8-Aoc-RM2, metal not drawn]

0.16
0.2

###

# experiment: in vivo
# Parameters: species or system CF-1 normal mice
# assay.context: CF-1, mouse, iv, total radioactivity, L. Intestine uptake
quantity.kind: tissue uptake at 1 h (%ID/g)
Answers are plain numbers, in %ID/g.

Which tissue uptake at 1 h value belongs to CC(C)C[C@H](NC(=O)C[C@H](O)[C@H](CC(C)C)NC(=O)[C@H](Cc1c[nH]cn1)NC(=O)CNC(=O)[C@@H](NC(=O)[C@H](C)NC(=O)[C@H](Cc1c[nH]c2ccccc12)NC(=O)[C@H](CCC(N)=O)NC(=O)[C@@H](Cc1ccccc1)NC(=O)CCCCCNC(=O)[C@H](CCCCNC(=O)CN1CCN(CC(=O)O)CCN(CC(=O)O)CCN(CC(=O)O)CC1)NC(=O)CCCCCNC(=O)CC[C@H](NC(=O)N[C@@H](CCC(=O)O)C(=O)O)C(=O)O)C(C)C)C(N)=O [DUPA-6-Ahx-Lys(^111In-DOTA)-6-Ahx-RM2, metal not drawn] ?
0.14

###

Task for the reader: assign each of the following compounds its reported tissue uptake at 1 h.
# experiment: in vivo
# Parameters: species or system CF-1 normal mice
# assay.context: CF-1, mouse, iv, total radioactivity, Kidneys uptake
Numbers only, in %ID/g.

Example cases with answers are listed next.
- compound: "CC(C)C[C@H](NC(=O)C[C@H](O)[C@H](CC(C)C)NC(=O)[C@H](Cc1c[nH]cn1)NC(=O)CNC(=O)[C@@H](NC(=O)[C@H](C)NC(=O)[C@H](Cc1c[nH]c2ccccc12)NC(=O)[C@H](CCC(N)=O)NC(=O)[C@@H](Cc1ccccc1)NC(=O)CCCCNC(=O)[C@H](CCCCNC(=O)CN1CCN(CC(=O)O)CCN(CC(=O)O)CCN(CC(=O)O)CC1)NC(=O)CCCCCNC(=O)CC[C@H](NC(=O)N[C@@H](CCC(=O)O)C(=O)O)C(=O)O)C(C)C)C(N)=O [DUPA-6-Ahx-Lys(^111In-DOTA)-5-Ava-RM2, metal not drawn]"
  tissue uptake at 1 h, %ID/g: 4.92
- compound: "CC(C)C[C@H](NC(=O)C[C@H](O)[C@H](CC(C)C)NC(=O)[C@H](Cc1c[nH]cn1)NC(=O)CNC(=O)[C@@H](NC(=O)[C@H](C)NC(=O)[C@H](Cc1c[nH]c2ccccc12)NC(=O)[C@H](CCC(N)=O)NC(=O)[C@@H](Cc1ccccc1)NC(=O)CCCCCNC(=O)[C@H](CCCCNC(=O)CN1CCN(CC(=O)O)CCN(CC(=O)O)CCN(CC(=O)O)CC1)NC(=O)CCCCCNC(=O)CC[C@H](NC(=O)N[C@@H](CCC(=O)O)C(=O)O)C(=O)O)C(C)C)C(N)=O [DUPA-6-Ahx-Lys(^111In-DOTA)-6-Ahx-RM2, metal not drawn]"
  tissue uptake at 1 h, %ID/g: 2.84
- compound: "CC(C)C[C@H](NC(=O)C[C@H](O)[C@H](CC(C)C)NC(=O)[C@H](Cc1c[nH]cn1)NC(=O)CNC(=O)[C@@H](NC(=O)[C@H](C)NC(=O)[C@H](Cc1c[nH]c2ccccc12)NC(=O)[C@H](CCC(N)=O)NC(=O)[C@@H](Cc1ccccc1)NC(=O)CCCCCCCNC(=O)[C@H](CCCCNC(=O)CN1CCN(CC(=O)O)CCN(CC(=O)O)CCN(CC(=O)O)CC1)NC(=O)CCCCCNC(=O)CC[C@H](NC(=O)N[C@@H](CCC(=O)O)C(=O)O)C(=O)O)C(C)C)C(N)=O [DUPA-6-Ahx-Lys(^111In-DOTA)-8-Aoc-RM2, metal not drawn]"
  tissue uptake at 1 h, %ID/g: 1.37

Which tissue uptake at 1 h value belongs to CC(C)C[C@H](NC(=O)C[C@H](O)[C@H](CC(C)C)NC(=O)[C@H](Cc1c[nH]cn1)NC(=O)CNC(=O)[C@@H](NC(=O)[C@H](C)NC(=O)[C@H](Cc1c[nH]c2ccccc12)NC(=O)[C@H](CCC(N)=O)NC(=O)[C@@H](Cc1ccccc1)NC(=O)c1ccc(NC(=O)[C@H](CCCCNC(=O)CN2CCN(CC(=O)O)CCN(CC(=O)O)CCN(CC(=O)O)CC2)NC(=O)CCCCCNC(=O)CC[C@H](NC(=O)N[C@@H](CCC(=O)O)C(=O)O)C(=O)O)cc1)C(C)C)C(N)=O [DUPA-6-Ahx-Lys(^111In-DOTA)-AMBA-RM2, metal not drawn] ?
1.37

###

Task for the reader: assign each of the following molecules its reported tissue uptake at 1 h.
# experiment: in vivo
# Set-up: species or system CF-1 normal mice
# assay.context: CF-1, mouse, iv, total radioactivity, Brain uptake
Give bare numbers, in %ID/g.

Example cases with answers are listed next.
- molecule: "CC(C)C[C@H](NC(=O)C[C@H](O)[C@H](CC(C)C)NC(=O)[C@H](Cc1c[nH]cn1)NC(=O)CNC(=O)[C@@H](NC(=O)[C@H](C)NC(=O)[C@H](Cc1c[nH]c2ccccc12)NC(=O)[C@H](CCC(N)=O)NC(=O)[C@@H](Cc1ccccc1)NC(=O)CCCCNC(=O)[C@H](CCCCNC(=O)CN1CCN(CC(=O)O)CCN(CC(=O)O)CCN(CC(=O)O)CC1)NC(=O)CCCCCNC(=O)CC[C@H](NC(=O)N[C@@H](CCC(=O)O)C(=O)O)C(=O)O)C(C)C)C(N)=O [DUPA-6-Ahx-Lys(^111In-DOTA)-5-Ava-RM2, metal not drawn]"
  tissue uptake at 1 h / %ID/g: 0.02
- molecule: "CC(C)C[C@H](NC(=O)C[C@H](O)[C@H](CC(C)C)NC(=O)[C@H](Cc1c[nH]cn1)NC(=O)CNC(=O)[C@@H](NC(=O)[C@H](C)NC(=O)[C@H](Cc1c[nH]c2ccccc12)NC(=O)[C@H](CCC(N)=O)NC(=O)[C@@H](Cc1ccccc1)NC(=O)CCCCCNC(=O)[C@H](CCCCNC(=O)CN1CCN(CC(=O)O)CCN(CC(=O)O)CCN(CC(=O)O)CC1)NC(=O)CCCCCNC(=O)CC[C@H](NC(=O)N[C@@H](CCC(=O)O)C(=O)O)C(=O)O)C(C)C)C(N)=O [DUPA-6-Ahx-Lys(^111In-DOTA)-6-Ahx-RM2, metal not drawn]"
  tissue uptake at 1 h / %ID/g: 0.03

// below: tissue uptake at 1 h requested for another molecule
Which tissue uptake at 1 h value belongs to CC(C)C[C@H](NC(=O)C[C@H](O)[C@H](CC(C)C)NC(=O)[C@H](Cc1c[nH]cn1)NC(=O)CNC(=O)[C@@H](NC(=O)[C@H](C)NC(=O)[C@H](Cc1c[nH]c2ccccc12)NC(=O)[C@H](CCC(N)=O)NC(=O)[C@@H](Cc1ccccc1)NC(=O)CCCCCCCNC(=O)[C@H](CCCCNC(=O)CN1CCN(CC(=O)O)CCN(CC(=O)O)CCN(CC(=O)O)CC1)NC(=O)CCCCCNC(=O)CC[C@H](NC(=O)N[C@@H](CCC(=O)O)C(=O)O)C(=O)O)C(C)C)C(N)=O [DUPA-6-Ahx-Lys(^111In-DOTA)-8-Aoc-RM2, metal not drawn] ?
0.02
